Values from patent US8883748B2

# System: Apophysomyces elegans
# Assay name: In-vitro antifungal spectrum and MIC, clinical isolates
# Assay type: cell-based
# Assay setup: unit assumed
Endpoint label: MIC (µg/mL)
Supply the numeric figure in µg/mL, leaving out any unit text.

Compound	Units of measure	MIC
C[C@@H]1[C@H](O)[C@@H](C)/C=C/C=C/C=C/C=C/C=C/C=C/C=C/[C@H](O[C@@H]2O[C@H](C)[C@@H](O)[C@H](N)[C@@H]2O)C[C@@H]2O[C@](O)(C[C@@H](O)C[C@@H](O)[C@H](O)CC[C@@H](O)C[C@@H](O)CC(=O)O[C@H]1C)C[C@H](O)[C@H]2C(=O)O	µg/mL	2
C[C@@H](c1ncncc1F)[C@](O)(Cn1cncn1)c1ccc(F)cc1F	µg/mL	8

**Q:** Quick one: MIC of `OC(Cn1cncn1)(Cn1cncn1)c1ccc(F)cc1F` ?
**A:** 64

**Q:** Quick one: MIC of CCC(C)n1ncn(-c2ccc(N3CCN(c4ccc(OCC5COC(Cn6cncn6)(c6ccc(Cl)cc6Cl)O5)cc4)CC3)cc2)c1=O (stereo not shown) ?
**A:** 16

###

# System: Cladophialophora bantiana
# Assay name: In-vitro antifungal spectrum and MIC, clinical isolates
# Assay type: cell-based
Endpoint label: Susceptibility category

Compound	Target under test	Endpoint label	Observed
C[C@@H]1[C@H](O)[C@@H](C)/C=C/C=C/C=C/C=C/C=C/C=C/C=C/[C@H](O[C@@H]2O[C@H](C)[C@@H](O)[C@H](N)[C@@H]2O)C[C@@H]2O[C@](O)(C[C@@H](O)C[C@@H](O)[C@H](O)CC[C@@H](O)C[C@@H](O)CC(=O)O[C@H]1C)C[C@H](O)[C@H]2C(=O)O [Amphotericin B]	Cladophialophora bantiana	Susceptibility category	Active
C[C@@H](c1ncncc1F)[C@](O)(Cn1cncn1)c1ccc(F)cc1F [Voriconazole]	Cladophialophora bantiana	Susceptibility category	Active
CCC(C)n1ncn(-c2ccc(N3CCN(c4ccc(OCC5COC(Cn6cncn6)(c6ccc(Cl)cc6Cl)O5)cc4)CC3)cc2)c1=O (stereo not shown) [Itraconazole]	Cladophialophora bantiana	Susceptibility category	Active

###

# maps each entry to its MIC
# Test system: Aspergillus flavus, A. fumigatus
# Assay name: In-vitro antifungal spectrum and MIC, clinical isolates
# Assay type: cell-based
# Assay setup: in µg/mL (unit assumed)

Compound	MIC
C[C@@H](c1ncncc1F)[C@](O)(Cn1cncn1)c1ccc(F)cc1F [Voriconazole]	0.125-1
CCC(C)n1ncn(-c2ccc(N3CCN(c4ccc(OCC5COC(Cn6cncn6)(c6ccc(Cl)cc6Cl)O5)cc4)CC3)cc2)c1=O (stereo not shown) [Itraconazole]	0.03-16

**Q:** Quick one: MIC of OC(Cn1cncn1)(Cn1cncn1)c1ccc(F)cc1F [Fluconazole] ?
**A:** 32-64

**Q:** Quick one: MIC of C[C@@H]1[C@H](O)[C@@H](C)/C=C/C=C/C=C/C=C/C=C/C=C/C=C/[C@H](O[C@@H]2O[C@H](C)[C@@H](O)[C@H](N)[C@@H]2O)C[C@@H]2O[C@](O)(C[C@@H](O)C[C@@H](O)[C@H](O)CC[C@@H](O)C[C@@H](O)CC(=O)O[C@H]1C)C[C@H](O)[C@H]2C(=O)O [Amphotericin B] ?
**A:** 0.5-2

###

# System: Trichophyton mentagrophytes
# Assay name: In-vitro antifungal spectrum and MIC, clinical isolates
# Assay type: cell-based
# Assay setup: in µg/mL (unit assumed)
Endpoint label: MIC

Compound	Target under test	MIC
OC(Cn1cncn1)(Cn1cncn1)c1ccc(F)cc1F	Trichophyton mentagrophytes	32-64

**Q:** Request - read-out MIC | tested on Trichophyton mentagrophytes | compound CCC(C)n1ncn(-c2ccc(N3CCN(c4ccc(OCC5COC(Cn6cncn6)(c6ccc(Cl)cc6Cl)O5)cc4)CC3)cc2)c1=O (stereo not shown)
**A:** 1-2

**Q:** Request - read-out MIC | tested on Trichophyton mentagrophytes | compound `C[C@@H](c1ncncc1F)[C@](O)(Cn1cncn1)c1ccc(F)cc1F`
**A:** 0.5-1

**Q:** Request - read-out MIC | tested on Trichophyton mentagrophytes | compound `C[C@@H]1[C@H](O)[C@@H](C)/C=C/C=C/C=C/C=C/C=C/C=C/C=C/[C@H](O[C@@H]2O[C@H](C)[C@@H](O)[C@H](N)[C@@H]2O)C[C@@H]2O[C@](O)(C[C@@H](O)C[C@@H](O)[C@H](O)CC[C@@H](O)C[C@@H](O)CC(=O)O[C@H]1C)C[C@H](O)[C@H]2C(=O)O`
**A:** 0.5-2
